Target: MEK1 (Homo sapiens)
Sequence (Q02750 whole entry): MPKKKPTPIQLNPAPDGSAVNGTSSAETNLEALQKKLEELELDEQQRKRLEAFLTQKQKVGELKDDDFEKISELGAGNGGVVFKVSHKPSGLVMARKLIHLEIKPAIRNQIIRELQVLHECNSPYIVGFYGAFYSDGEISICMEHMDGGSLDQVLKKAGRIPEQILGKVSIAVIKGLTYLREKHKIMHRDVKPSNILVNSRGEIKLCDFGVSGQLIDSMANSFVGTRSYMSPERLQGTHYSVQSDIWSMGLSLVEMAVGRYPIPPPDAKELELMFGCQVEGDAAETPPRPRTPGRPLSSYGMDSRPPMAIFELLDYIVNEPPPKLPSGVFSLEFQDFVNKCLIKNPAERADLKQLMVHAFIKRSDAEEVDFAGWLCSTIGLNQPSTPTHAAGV
Assay: Enzyme-linked immunosorbent assay (ELISA) of enzymatic activity, IC50
Assay type: biochemical
Exercise: for every item that follows, state its recorded pIC50.
Entry type: numeric. Quantity: pIC50, the -log10 of concentration in molar units.

### Prompt Hi! What's the reported pIC50 for `O=C(c1ccc(F)c(F)c1Nc1ccc(I)cc1F)N1CC(O)([C@@H]2CCCCN2)C1` on MEK1 (Homo sapiens)?
### Response 7.21

### Prompt Hi! What's the reported pIC50 for `Cn1cnc2c(F)c(Nc3ccc(Br)cc3F)c(C(=O)NOCCO)cc21` on MEK1 (Homo sapiens)?
### Response 6.30

====

Target: panel of 255 wild-type kinases (Homo sapiens, UniProt O00311)
Sequence (O00311 whole entry): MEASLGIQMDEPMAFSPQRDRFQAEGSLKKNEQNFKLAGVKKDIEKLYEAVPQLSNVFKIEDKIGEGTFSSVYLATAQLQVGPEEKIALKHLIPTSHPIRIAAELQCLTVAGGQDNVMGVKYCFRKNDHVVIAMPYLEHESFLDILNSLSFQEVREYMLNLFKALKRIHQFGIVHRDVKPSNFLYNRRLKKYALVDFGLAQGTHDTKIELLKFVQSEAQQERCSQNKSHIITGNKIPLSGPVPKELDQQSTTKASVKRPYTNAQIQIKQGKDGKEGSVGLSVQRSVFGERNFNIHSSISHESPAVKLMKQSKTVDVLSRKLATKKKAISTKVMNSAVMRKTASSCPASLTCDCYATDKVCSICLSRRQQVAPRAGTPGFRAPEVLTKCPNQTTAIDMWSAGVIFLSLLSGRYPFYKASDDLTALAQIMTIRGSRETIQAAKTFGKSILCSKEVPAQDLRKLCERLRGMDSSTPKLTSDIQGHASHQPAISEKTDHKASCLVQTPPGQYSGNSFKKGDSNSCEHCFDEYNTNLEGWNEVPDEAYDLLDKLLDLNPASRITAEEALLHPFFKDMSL
Experiment: Kinase panel profiling at 1 µmol/L (MSA or IMAP), percentage inhibition
Assay type: biochemical
Conditions: CDC7/ASK kinase assay; 1 µmol/L single concentration; read-out: %-inhibition CDC7/ASK
value type: inhibition at 1 µM (%)
Give just the numeric value; % need not be written.

### Prompt Record request: inhibition at 1 µM value, item COc1cc2ncnc(Nc3ccc(F)c(Cl)c3)c2cc1NC(=O)/C=C/CN1CCCCC1 [dacomitinib]
### Response 0.799

### Prompt Record request: inhibition at 1 µM value, item CCN1CCN(c2ccc(Nc3cc(N(C)C(=O)Nc4c(Cl)c(OC)cc(OC)c4Cl)ncn3)cc2)CC1 [infigratinib]
### Response -2

### Prompt Record request: inhibition at 1 µM value, item Cn1cc(-c2cc3c(N4CCN(c5ncc([C@@](C)(N)c6ccc(F)cc6)cn5)CC4)ncnn3c2)cn1 [avapritinib]
### Response 0.0396

### Prompt Record request: inhibition at 1 µM value, item Cc1cc(Nc2ncnc3ccc(NC4=NC(C)(C)CO4)cc23)ccc1Oc1ccn2ncnc2c1 [tucatinib]
### Response -0.857

====

Test system: 134 cancer cell lines
Experiment: Cell viability assay (ATPlite, 72 hours), IC50 on cancer cell line panel
Conditions: Homo sapiens, 786-0, read-out: IC50 in cell proliferation assay, cell line 786-O
value type: IC50 (nM)
Give just the numeric value; nM need not be written.

### Prompt Hi! What's the reported IC50 for `CO[C@]1(C(=O)N[C@@H](C)c2ccc(-n3cc(F)cn3)nc2)CC[C@H](c2nc(C)cc(Nc3cc(C)[nH]n3)n2)CC1` on 134 cancer cell lines?
### Response 3960

### Prompt Hi! What's the reported IC50 for `CC(=O)Nc1cccc(-n2c(=O)n(C3CC3)c(=O)c3c(Nc4ccc(I)cc4F)n(C)c(=O)c(C)c32)c1` on 134 cancer cell lines?
### Response 42

### Prompt Hi! What's the reported IC50 for `CN1CCN(c2ccc(C(=O)Nc3n[nH]c4ccc(Cc5cc(F)cc(F)c5)cc34)c(NC3CCOCC3)c2)CC1` on 134 cancer cell lines?
### Response 5120

### Prompt Hi! What's the reported IC50 for `CCCS(=O)(=O)Nc1ccc(F)c(C(=O)c2c[nH]c3ncc(-c4ccc(Cl)cc4)cc23)c1F` on 134 cancer cell lines?
### Response 25100

### Prompt Hi! What's the reported IC50 for `CCc1nc(C(N)=O)c(Nc2ccc(N3CCC(N4CCN(C)CC4)CC3)c(OC)c2)nc1NC1CCOCC1` on 134 cancer cell lines?
### Response 947

### Prompt Hi! What's the reported IC50 for `O=C(c1ccc(F)c(F)c1Nc1ccc(I)cc1F)N1CC(O)([C@@H]2CCCCN2)C1` on 134 cancer cell lines?
### Response 205
